Where these numbers come from: the RNAGym collection of RNA variant scans (doi:10.7554/elife.80360)

B1: Hairpin Ribozyme (parent)
chain: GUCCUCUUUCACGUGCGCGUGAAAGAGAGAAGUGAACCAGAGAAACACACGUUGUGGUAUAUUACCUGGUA

# Variants of: B1
# method_summary: self-cleavage, relative activity (ratio to wild type); higher = more cleavage; co-transcriptional
The entries below come with measured self-cleavage values attached.

> print(dat)
   variant.code   readout.name  result
1     A30U A39C  self-cleavage   0.111
2      C4A G21C  self-cleavage   0.175
3     A43C G54A  self-cleavage   0.217

Entry G19U C66U needs its self-cleavage filled in; supply it.
0.334

Entry U9A C18A needs its self-cleavage filled in; supply it.
0.855

Entry G29C G69C needs its self-cleavage filled in; supply it.
0.0776

Entry A45U U55A needs its self-cleavage filled in; supply it.
0.197

Entry A49U U52A needs its self-cleavage filled in; supply it.
0.209

Entry A28U C65U needs its self-cleavage filled in; supply it.
0.153

Entry G27A C37A needs its self-cleavage filled in; supply it.
0.219

Entry A31U U55G needs its self-cleavage filled in; supply it.
0.089

Entry A44G A71G needs its self-cleavage filled in; supply it.
0.117

Entry G21C G34U needs its self-cleavage filled in; supply it.
1.12

Entry G19C A44U needs its self-cleavage filled in; supply it.
0.0473

Entry U20A C46U needs its self-cleavage filled in; supply it.
0.183

Entry C18A U60G needs its self-cleavage filled in; supply it.
0.732

Entry A22U U58A needs its self-cleavage filled in; supply it.
0.589

Entry U7G U9G needs its self-cleavage filled in; supply it.
0.599
